test system: CD2F1 mice, L1210 leukemia ip, survival T/C; test: NCI In Vivo Anticancer Drug Screen. Data for tumor model L1210 Leukemia (intraperitoneal) in CD2F1 (CDF1) mice; conditions: endpoint: mean survival time; dose: 100.0 mg/kg/injection; schedule: Q01DX001 (ip); vehicle: saline; higher = longer survival
Inconclusive results and toxic doses are left out.
The reader will find reported T/C values listed item by item below.
assay metric: T/C

>  <molecule>
CCOC(=O)C(Cc1ccccc1)P(=O)(OCC)OCC (configuration not stated)

>  <assay metric>
T/C

>  <observed measurement>
108 % of control

$$$$
>  <molecule>
CCN(CC)C(C)C(=O)Nc1c(C)cccc1Cl (configuration not stated)

>  <assay metric>
T/C

>  <observed measurement>
109 % of control

$$$$
>  <molecule>
O=S(=O)(SC1=NCCN1)c1ccccc1

>  <assay metric>
T/C

>  <observed measurement>
101 % of control

$$$$
>  <molecule>
CCSC(C)CC(=O)O (configuration not stated)

>  <assay metric>
T/C

>  <observed measurement>
103 % of control

$$$$
>  <molecule>
C=CCC1(C)C(=O)CCC2=C1CCc1c(OC)cccc12 (configuration not stated)

>  <assay metric>
T/C

>  <observed measurement>
90 % of control

$$$$
>  <molecule>
CCOC(=O)CCC(N)C(=O)OCC (configuration not stated)

>  <assay metric>
T/C

>  <observed measurement>
95 % of control

$$$$
>  <molecule>
O=C(/C=C/c1ccco1)c1cccnc1

>  <assay metric>
T/C

>  <observed measurement>
94 % of control

$$$$
>  <molecule>
CC(=O)O[C@H]1CC[C@@]2(C)[C@@H](CC[C@@H]3[C@@H]2CC(=O)[C@]2(C)[C@@H]4[C@H](C[C@@H]32)O[C@]2(CC[C@@H](C)CO2)[C@H]4C)C1

>  <assay metric>
T/C

>  <observed measurement>
96 % of control

$$$$
>  <molecule>
CCOC(=O)c1cccc(N(CCOS(C)(=O)=O)CCOS(C)(=O)=O)c1

>  <assay metric>
T/C

>  <observed measurement>
101 % of control

$$$$
>  <molecule>
CC(=O)OCCC/C(=C/c1c[nH]c2ccccc12)[N+](=O)[O-]

>  <assay metric>
T/C

>  <observed measurement>
97 % of control

$$$$
>  <molecule>
CC(=O)N1CCCC2=C1CCCCCC2

>  <assay metric>
T/C

>  <observed measurement>
96 % of control

$$$$
>  <molecule>
CC(=O)c1cc(-c2ccc(Cl)cc2)nc2c(Cl)cc(Cl)cc12

>  <assay metric>
T/C

>  <observed measurement>
89 % of control

$$$$
